Biological target: T1, human EpCAM-mFc (human)
T1 chain: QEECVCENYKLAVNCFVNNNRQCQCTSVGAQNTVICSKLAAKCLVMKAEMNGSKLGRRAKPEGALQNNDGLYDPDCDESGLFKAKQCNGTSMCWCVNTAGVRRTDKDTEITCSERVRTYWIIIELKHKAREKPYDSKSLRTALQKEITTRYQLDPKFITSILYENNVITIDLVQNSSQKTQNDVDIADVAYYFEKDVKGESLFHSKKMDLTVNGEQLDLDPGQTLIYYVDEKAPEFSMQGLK
Assay: ELISA
Measurement Kind: Kd (nM)
Give a bare numeral; the unit nM is implied.

Enquiry: Recorded Kd for EP110-3014 (1361-H) (antibody) chain 1: QVQLVQSGAEVKKPGASVKVSCKASGYTFTNYHIHWVRQAPGQRLEYIGWIYPGNVYIQYNEKFKGRATLTADKSASTAYMELSSLRSEDTAVYYCARDGPWFAYWGQGTLVTVSS chain 2: QGQSGQGPRPHCAILRQCLAATGGGSSGGAVGLLAPPGGLSGRSDNIGGSDIVLTQTPLSLSVTPGQPASISCRSSRSLLHSDGFTYLYWFLQKPGQSPQLLIYQTSNLASGVPDRFSSSGSGTDFTLKISRVEAEDVGVYYCAQNLELPNTFGQGTKLEIK , please?
Return: 336
